Recorded values, source PubChem BioAssay.

As shown below, each of these compounds has a reported composite z-score value.
Tested on: Neuregulin-1 EGF-like domain
Assay: binders of neuregulin-1 EGF-like domain, primary screen, biochemical, small-molecule microarray, 635 nm fluorescence (AID 1081);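 further: binding of the protein to compounds printed on small-molecule microarray slides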
Details: small-molecule microarray binding, higher = more signal
property: composite z-score

> print(dat)
                  compound.structure.string  experimental.value
1  CCN1C(=O)[C@H]2[C@H]3[C@H](O)[C@H](O)CC(=NOC)[C@@H]3CC[C@H]2C1=O              -0.817
2  Cc1ccc(S(=O)(=O)N[C@H]2COC(=O)[C@@H](C)COC(=O)[C@H](C)NC(=O)CC=C[C@H]2C)cc1              -0.132
3  CO[C@H]1COC(=O)CC=C[C@@H](C)COC(=O)[C@@H](OCc2ccccc2)C=C[C@@H]1C                1.14
4   CC(C)C(=O)N[C@@H]1CCCN1C(=O)C=Cc1ccccc1                1.07
5  CO[C@H]1COC(=O)[C@H](C)NC(=O)CC=C[C@@H](C)[C@H](OC)COC(=O)CC=C[C@@H]1C              0.0232
6  CO[C@@H]1C=CCC(=O)N2CCC[C@H]2C(=O)OC[C@H](C)C(=O)OC[C@H]1C                1.07
7  CC(C)CCN1CCc2nc(-c3ccccc3)c3c(c2C1)CO[C@@H](C)C3                1.17
8  O=C1[C@H]2[C@H]3[C@H](O)[C@H](O)CC(=NOCc4ccccc4)[C@H]3CC[C@H]2C(=O)N1Cc1ccccc1              -0.263
9  CCCNC(=O)OC[C@H]1O[C@H](CCON=C(C)CCN2CCc3nc(-c4ccccc4)c(-c4ccccc4)cc3C2)C=C[C@@H]1Oc1ccc(OC)cc1               0.524
